All values here come from patent US20210340276A1.

Some binders, each annotated with its measured EC50.
molecular target: Human cancer-specific MUC1 peptide (PTL 1) (human); assay: ELISA, MUC1 peptide immobilized on 384-well plate, HRP anti-human Igκ detection, luminescence
READOUT LABEL: EC50 (nM)

# BINDER, READOUT LABEL, RECORDED MEASUREMENT
rows = [
    ("Sample No. 2: [DFO-C(═O)-CH2O-(1,3-phenylene)-C(═O)-Gly-Lys-Z2]p-Fab (Fab, V domains shown, may carry the labeling moiety; sites not stated; [DFO-C(═O)-CH2O-(1,3-phenylene)-C(═O)-Gly-Lys-Z2] labeling moiety bound via 2-iminothiolane to amino group(s) of the Fab, one or two per Fab by MS, sites and chain not stated; N-terminal Gln into pyroglutamic acid in a great majority (Example 2)) VH: QVQLVQSGAEVKKPGASVKVSCKASGYTFTNYGLSWVRQAPGQGLEWMGENHPGSGIIYHNEKFRGRVTLTADRSTSTAYMELSSLRSEDTAVYYCARSSGTRGFDYWGQGTLVTVSS VL: DVVMTQTPLSLSVTPGQPASISCRSSQSIVHSNGNTYLEWYLQKPGQSPQLLIYRVSNRFSGVPDRFSGSGSGTDFTLKISRVEAEDVGVYYCFQGSHGPWTFGQGTKLEIKR", "EC50", 0.3),
    ("Sample No. 6: [DOTA-NH-CH2-(1,3-phenylene)-C(═O)-Gly-Lys-Z2]p-Fab (Fab, V domains shown, may carry the labeling moiety; sites not stated; [DOTA-NH-CH2-(1,3-phenylene)-C(═O)-Gly-Lys-Z2] labeling moiety bound via 2-iminothiolane to amino group(s) of the Fab, one to three per Fab by MS, sites and chain not stated; N-terminal Gln into pyroglutamic acid in a great majority (Example 2)) VH: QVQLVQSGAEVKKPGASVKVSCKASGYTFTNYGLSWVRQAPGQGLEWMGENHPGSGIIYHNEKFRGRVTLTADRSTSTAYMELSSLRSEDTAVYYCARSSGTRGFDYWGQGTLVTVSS VL: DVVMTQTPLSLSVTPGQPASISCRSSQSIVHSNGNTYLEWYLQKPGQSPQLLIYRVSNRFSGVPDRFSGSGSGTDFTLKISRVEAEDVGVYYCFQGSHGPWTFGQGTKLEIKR", "EC50", 0.3),
    ("Sample No. 3: [DOTA-CH2-(1,4-phenylene)-NH-C(═S)]p-Fab (Fab, V domains shown, may carry the labeling moiety; sites not stated; [DOTA-CH2-(1,4-phenylene)-NH-C(═S)] (from p-SCN-Bn-DOTA) bound to amino group(s) of the Fab, one to four per Fab by MS, sites and chain not stated; N-terminal Gln into pyroglutamic acid in a great majority (Example 2)) VH: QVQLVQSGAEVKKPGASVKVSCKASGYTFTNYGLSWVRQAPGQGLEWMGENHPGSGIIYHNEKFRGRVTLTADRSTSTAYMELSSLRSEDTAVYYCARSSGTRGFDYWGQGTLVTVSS VL: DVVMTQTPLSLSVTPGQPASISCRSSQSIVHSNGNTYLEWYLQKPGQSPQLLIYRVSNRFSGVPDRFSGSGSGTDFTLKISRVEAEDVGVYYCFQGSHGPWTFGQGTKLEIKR", "EC50", 0.49),
    ("Sample No. 4: [DOTA]p-Fab (Fab, V domains shown, may carry the labeling moiety; sites not stated; DOTA bound directly (via N-hydroxysulfosuccinimidyl DOTA) to amino group(s) of the Fab, one or two per Fab by MS, sites and chain not stated; N-terminal Gln into pyroglutamic acid in a great majority (Example 2)) VH: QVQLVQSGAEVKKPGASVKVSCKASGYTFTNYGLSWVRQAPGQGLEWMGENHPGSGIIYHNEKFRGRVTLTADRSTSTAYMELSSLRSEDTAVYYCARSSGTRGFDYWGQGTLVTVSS VL: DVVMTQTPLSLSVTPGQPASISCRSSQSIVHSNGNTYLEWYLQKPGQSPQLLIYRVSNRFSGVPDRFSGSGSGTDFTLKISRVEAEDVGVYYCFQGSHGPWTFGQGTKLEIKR", "EC50", 0.35),
]
